target-under-test: 5-HT2C (Homo sapiens (Human), UniProt P28335)
Sequence (P28335 whole entry, looked up): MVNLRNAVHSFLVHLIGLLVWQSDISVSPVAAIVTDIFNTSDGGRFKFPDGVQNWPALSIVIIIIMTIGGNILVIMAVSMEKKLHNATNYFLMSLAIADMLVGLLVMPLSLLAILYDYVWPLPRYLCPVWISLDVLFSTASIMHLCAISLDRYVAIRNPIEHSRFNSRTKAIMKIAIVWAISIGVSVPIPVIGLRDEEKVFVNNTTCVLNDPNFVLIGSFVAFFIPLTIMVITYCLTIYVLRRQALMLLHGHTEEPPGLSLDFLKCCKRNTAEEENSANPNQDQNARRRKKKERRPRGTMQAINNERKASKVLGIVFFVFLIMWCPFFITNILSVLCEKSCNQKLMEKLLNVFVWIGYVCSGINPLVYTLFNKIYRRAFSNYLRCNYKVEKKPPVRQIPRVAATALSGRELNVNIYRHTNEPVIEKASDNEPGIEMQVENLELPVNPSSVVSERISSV
assay-name: 5-HT2C Gq-mediated calcium flux functional assay
Format: cell-based
measure: pEC50
Bear in mind: pEC50 is minus log10 of a mol/L concentration; give just that figure.

# annotated cases, reported pEC50 shown
In [3]: df
Out[3]:
                                   molecule  numeric_result
0  C=CC(C)N(C)CCc1c[nH]c2ccc(F)cc12 (stereo not shown)            7.80
1  C=CCN(CCc1c[nH]c2ccc(F)cc12)C(C)CC (stereo not shown)            7.31
2           CCN(C)CCc1c[nH]c2c(F)cc(OC)cc12            7.69

Could you now look at the following molecule, please?
What does the data say about its pEC50? Entry: CCCN(CC)CCc1c[nH]c2ccc(F)cc12
8.75

Reference source for all entries: patent US20240286998A1
